CONDITION_LABEL: human gut metagenome, 24 h, 2 µM; further: call rule not given here

COMPOUND | Bacterial Biotransformation
CC(C)(C)NCC(O)COc1cccc2c1CC(O)C(O)C2 (centres undefined) | Compound metabolized
CCN(C)C(=O)Oc1cccc([C@H](C)N(C)C)c1.O=C(O)C(O)C(O)C(=O)O [RIVASTIGMINE TARTRATE] | Compound metabolized
COc1ccc2c(c1)c(CC(=O)O)c(C)n2C(=O)c1ccc(Cl)cc1 | Compound metabolized
CCCCC(=O)O[C@]1(C(=O)CO)[C@@H](C)C[C@H]2[C@@H]3CCC4=CC(=O)C=C[C@]4(C)[C@@]3(F)[C@@H](O)C[C@@]21C [BETAMETHASONE VALERATE] | Compound metabolized
COc1ccc(/C=C/C(=O)Nc2ccccc2C(=O)O)cc1OC | Compound NOT metabolized
CN1CCC(OC(c2ccccc2)c2ccccc2)CC1 | Compound metabolized
CN(C)C(=O)Oc1cccc([N+](C)(C)C)c1.[Br-] [NEOSTIGMINE BROMIDE] | Compound NOT metabolized
CN1[C@@H]2CC[C@H]1C[C@@H](OC(=O)[C@H](CO)c1ccccc1)C2 | Compound metabolized
CCS(=O)(=O)CCn1c([N+](=O)[O-])cnc1C | Compound metabolized
